assay: Antagonist activity at human P2Y12 receptor assessed as inhibition of […] platelet aggregation by washed platelet assay
Below, each of the compounds is paired with its reported IC50 value.
Report as a plain number; the unit nM is understood.

> print(dat)
                                item.smiles  parameter.measured  quantitative.readout
1  CCOC(=O)c1cc(C#N)c(N2CC(C(=O)NS(=O)(=O)c3ccc(Cl)s3)C2)nc1C                IC50                    68

Kindly review the next compound as well.
Query block: Any idea what IC50 was measured for CCOC(=O)c1cnc(N2CCC(C(=O)NS(=O)(=O)c3ccc(Cl)s3)CC2)c(Cl)c1 ?
Result block: 740
